The reported numbers originate from patent US20180009889A1.

# key: entry, value: Kd
# Assayed system: T1, EGF32 NRR (cyno) (cynomolgus monkey)
# T1 construct: recombinant, C-terminal six histidine tag
# Experiment notes: Biacore (SPR); set-up not stated on the sheet
Write the value in nM as a bare number.

12215 (antibody, human IgG1, kappa, V domains shown, also called MOR 12215) VH: QVQLVESGGGLVKPGGSLRLSCAASGFTFSTYVMHWVRQAPGKGLEWVGRIRSNTYGGITDYAAPVKGRFTISRDDSKNTLYLQMNSLKTEDTAVYYCARAEARYRDVWGQGTLVTVSS VL: DIQMTQSPSSLSASVGDRVTITCRASQSISSHLNWYQQKPGKAPKLLIYAASNLQSGVPSRFSGSGSGTDFTLTISSLQPEDFATYYCQQDYHTPFTFGQGTKVEIKR :: 2.7
20358 (antibody, human IgG1, kappa, V domains shown) VH: QVQLVQSGAEVKKPGSSVKVSCKASGGTFRTYAMHWVRQAPGQGLEWMGGIVPYHGITDYAQKFQGRVTITADESTSTAYMELSSLRSEDTAVYYCARDDYSTYAFAYWGQGTLVTVSS VL: DIQMTQSPSSLSASVGDRVTITCRASQSIASYLAWYQQKPGKAPKLLIYDASNLQSGVPSRFSGSGSGTDFTLTISSLQPEDFATYYCQQAYKTPYTFGQGTKVEIKR :: 2.7

Now for the binder whose Kd we want.
Suppose we examine the binder 12225 (antibody, human IgG1, kappa, V domains shown, also called MOR 12225) VH: QVQLVQSGAEVKKPGSSVKVSCKASGGTFSSYTISWVRQAPGQGLEWMGWIKPAFGTANYAQKFQGRVTITADESTSTAYMELSSLRSEDTAVYYCARGSFWFGYWGQGTLVTVSS VL: DIQMTQSPSSLSASVGDRVTITCRASQGINNYLNWYQQKPGKAPKLLIYDASKLQSGVPSRFSGSGSGTDFTLTISSLQPEDFATYYCQQYLQYPMTFGQGTKVEIKR ; what Kd value has been reported? 2.7
